biological target: human Cot/Tpl2 kinase (Homo sapiens, UniProt P41279); construct: human Cot/Tpl2 kinase construct encoding residues 30-398; 6His (N); made in house; host or cells: Sf9 insect cells (baculovirus system, BD Biosciences); experiment: Tpl2/Cot kinase assay, GST-MEK1 phosphorylation detected by ELISA (DELFIA Eu); type: biochemical; conditions: Table 1; 0.4 nM Tpl2, 35 nM GST-MEK1, 50 uM ATP, 1 h at 30° C.
Sequence (P41279 30-398): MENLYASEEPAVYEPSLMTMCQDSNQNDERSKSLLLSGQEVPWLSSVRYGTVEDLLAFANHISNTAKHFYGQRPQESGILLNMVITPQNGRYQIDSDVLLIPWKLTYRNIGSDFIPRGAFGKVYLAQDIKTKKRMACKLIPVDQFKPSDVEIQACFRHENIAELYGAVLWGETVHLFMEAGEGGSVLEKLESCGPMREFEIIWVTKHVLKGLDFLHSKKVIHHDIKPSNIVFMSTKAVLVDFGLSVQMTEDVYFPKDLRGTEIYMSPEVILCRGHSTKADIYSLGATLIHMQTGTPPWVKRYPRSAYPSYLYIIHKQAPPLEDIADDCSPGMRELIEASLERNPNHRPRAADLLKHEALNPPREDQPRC
ASSAY METRIC: IC50 (nM)

Look over these answered cases.
[[record]]
compound = "N#Cc1cnc2cnc(NCCN3CCOCC3)cc2c1Nc1cccc(Cl)c1"
test_result = 1160

[[record]]
compound = "N#Cc1cnc2cnc(NC(CN3CCOCC3)c3ccccc3)cc2c1Nc1ccc(F)c(Cl)c1 (centres unmarked)"
test_result = 2400


(1) N#Cc1cnc2cnc(N[C@H](CN3CCOCC3)c3ccccc3)cc2c1Nc1ccc(F)c(Cl)c1
(2) CN(C)CCCNc1cc2c(Nc3ccc(Cc4ccccc4)cc3)c(C#N)cnc2cn1
(Q) Two entries are listed, 1 and 2 . Which one carries the higher IC50? Give the label of your selection.
(A) 1
(1: 3700 nM, 2: 9.6 nM)

Reference source for all entries: patent US20060276498A1
